target: plasma kallikrein (Homo sapiens, UniProt P03952); test: inhibition of plasma kallikrein, dissociation constant Ki; settings: Ki, Plasma kallikr., Table 1
Sequence (P03952 391-638 limits assumed, species assumed): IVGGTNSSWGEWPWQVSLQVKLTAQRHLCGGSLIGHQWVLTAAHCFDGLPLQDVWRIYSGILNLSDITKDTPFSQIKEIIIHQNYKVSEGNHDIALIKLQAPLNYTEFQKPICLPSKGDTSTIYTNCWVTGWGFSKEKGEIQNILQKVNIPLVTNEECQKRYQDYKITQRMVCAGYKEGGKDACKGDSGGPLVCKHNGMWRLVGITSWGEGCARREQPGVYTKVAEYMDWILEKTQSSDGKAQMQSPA
Sequence (P03952 20-390 partner limits assumed, species assumed): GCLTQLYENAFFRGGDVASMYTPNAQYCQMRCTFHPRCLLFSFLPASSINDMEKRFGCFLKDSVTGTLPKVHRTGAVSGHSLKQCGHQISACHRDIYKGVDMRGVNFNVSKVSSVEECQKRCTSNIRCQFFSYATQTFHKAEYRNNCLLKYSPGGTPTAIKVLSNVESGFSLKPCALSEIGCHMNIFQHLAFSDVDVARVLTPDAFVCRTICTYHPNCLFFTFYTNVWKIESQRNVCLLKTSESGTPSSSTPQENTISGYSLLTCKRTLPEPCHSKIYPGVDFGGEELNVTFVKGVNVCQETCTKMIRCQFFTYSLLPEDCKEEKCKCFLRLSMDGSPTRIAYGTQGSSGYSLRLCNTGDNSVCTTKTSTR
Reported Endpoint: Ki (µM)
Provide the reading as a plain figure in µM.

I would be grateful if you could share the reported Ki for CN(C)C(=O)N1CCN(C(=O)[C@H](Cc2cccc(C(=N)N)c2)NS(=O)(=O)c2ccc3ccccc3c2)CC1 . 7.3

---

List of concentration at 1 h values.
assay: plasma concentration in rats after intravenous administration; type: in vivo; details: plasma, iv; rat, i.v. 1 mg/kg, 60 min
Provide the reading as a plain figure in ng/mL.

I would be grateful if you could share the reported concentration at 1 h for CS(=O)(=O)N1CCN(C(=O)[C@H](Cc2cccc(C(=N)N)c2)NS(=O)(=O)c2ccc3ccccc3c2)CC1.Cl . 50

I would be grateful if you could share the reported concentration at 1 h for CCOC(=O)N1CCN(C(=O)C(Cc2cccc(C(=N)N)c2)NS(=O)(=O)c2ccc3ccccc3c2)CC1 (racemic) [X, reference compound] . 8

I would be grateful if you could share the reported concentration at 1 h for CC(=O)N1CCN(C(=O)[C@H](Cc2cccc(C(=N)N)c2)NS(=O)(=O)c2ccc3ccccc3c2)CC1.Cl . 38

I would be grateful if you could share the reported concentration at 1 h for CN(C)C(=O)N1CCN(C(=O)[C@H](Cc2cccc(C(=N)N)c2)NS(=O)(=O)c2ccc3ccccc3c2)CC1 . 141

I would be grateful if you could share the reported concentration at 1 h for CC(=O)N1CCN(C(=O)C(Cc2cccc(C(=N)N)c2)NS(=O)(=O)c2ccc3ccccc3c2)CC1 (stereo not drawn) . 89

I would be grateful if you could share the reported concentration at 1 h for Cl.Cl.N=C(N)c1cccc(C[C@H](NS(=O)(=O)c2ccc3ccccc3c2)C(=O)N2CCN(CCO)CC2)c1 . 112
